# TARGET SYSTEM: M3 muscarinic receptor (Homo sapiens, UniProt P20309)
# Sequence (P20309 whole entry): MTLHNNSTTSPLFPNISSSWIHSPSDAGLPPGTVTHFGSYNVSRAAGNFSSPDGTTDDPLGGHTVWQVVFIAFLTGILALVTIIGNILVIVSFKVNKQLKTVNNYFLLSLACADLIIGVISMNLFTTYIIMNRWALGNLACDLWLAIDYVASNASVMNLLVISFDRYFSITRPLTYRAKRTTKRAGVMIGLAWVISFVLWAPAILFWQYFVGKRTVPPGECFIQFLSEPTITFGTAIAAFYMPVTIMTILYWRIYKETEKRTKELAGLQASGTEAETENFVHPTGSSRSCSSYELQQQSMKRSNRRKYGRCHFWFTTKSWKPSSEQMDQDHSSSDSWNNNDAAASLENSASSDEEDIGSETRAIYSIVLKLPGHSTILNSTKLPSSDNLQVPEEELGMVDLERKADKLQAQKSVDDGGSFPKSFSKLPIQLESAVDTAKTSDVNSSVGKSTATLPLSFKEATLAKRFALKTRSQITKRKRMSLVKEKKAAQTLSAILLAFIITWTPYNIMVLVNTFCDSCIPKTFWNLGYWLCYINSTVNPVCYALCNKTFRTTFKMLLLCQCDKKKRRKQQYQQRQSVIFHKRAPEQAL
# ASSAY COMMENT: R-SAT functional receptor assay, M3
READOUT KIND: EC50 (nM)
Record the value in nM, omitting the unit from your answer.

Query: Answer with the recorded EC50 for the compound listed here: Clc1ccc2c(c1)N=C(N1CCNCC1)c1ccccc1N2
Response: 129
